test: yeast display, Sf9 membrane polyspecificity reagent, FACS + sequencing; frameworks hold sequencing errors
readout_kind: polyreactivity (PSR sort gate)

QVQLVESGGGLVQAGGSLRLSCAASGFIFRDNAMGWYRQAPGKERELVAAISKSGGRTYYADSVKGRFTISRDNAKNTVYLQMNSLKPEDTAVYYCAKASRYWSLYYWGQGTQVTVSS	high polyreactivity
QGLLVESGGGLVQAGGSLRLTCAASGFIFSGYAMGWYRPAPGKERELVAAISWSGSSTYYADSVKGRFTISRDNAKNTVYLQMNSLKPEDTAVYYCAAWYTSTRPYDYWGQGTQVTVSS	high polyreactivity
QVQLVESGGGLVQAGGSLRLSCAASGSTSSLYTMGWYKQAPGKERELVAAITVSGSRTYYADSVKGRFTISRDNAKNTVYLQMNSLKPEDTAVYYCNAYPYYLVRNMDSWGQGTQVTVSS	high polyreactivity
QVQLVESGGGLVQAGGSLRLSCAASGSTFLTKAMGWNRQAPGKERELVAAISRSGGSTYYADSVKGRFTISRDNAKNTVYLQMNSLKPEDTAVYYGAAYSWRYQAWEFGYWGQGTQVTVSS	high polyreactivity
QVQLVESGGGLVQAGGSLRLSCAASGSIFDDYAMGWYRPAPGKEREVVAAISSGGSTYYADSVKGRFTISRDNAKNTVYLQMNSLKPEDTAVYYCNALYPQVGFGYWGQGTQVTVSS	low polyreactivity

# get_value(readout='polyreactivity (PSR sort gate)', item= "QVQLVESGGGLVQAGGSLRLCCAASGSTFYFYTMGWYRQAPGKERELVAAIRDSGSSTDYADSVKGRFTISRDNAKNTVYLQMNSLKPEATAVYYCAAEYNFPEFPWGGEYDYWGQGTQVTVSS" )
low polyreactivity

And then "QVQLVESGGGLVQAGGSLRLSCAASGSIYTYYAMGWYRQAPGKEMELVADIRWSGGSTYYADSVKGRFTISRDNAKNTVYLQMNSLKPEDTAVYYCNARYYSYCPIYNFDYWGQGTQVTVSS" , what is it?
low polyreactivity

Record: "QVQLVESGGGLVQAGGSLRLSCAASGSIFKLNAMGWYRQAPGKERELVAAITFSDGSTNYADSVKGRFTISRDNAKNTVYLQMNSLKPEDTAVYYCAAEFYYRTQWYYYWGQGTQVTVSS"
high polyreactivity
